# assay.procedure: Single-dose trial, plasma pharmacokinetics
# Assay type: in vivo, human
# conditions.used: both sexes, human, plasma; single-dose trial, 200 mg oral, fasting; read-out: Cmax

compound	Cmax
CC(C)=CCC[C@](C)(OC1O[C@H](CO)[C@@H](O)[C@H](O)[C@H]1O)[C@H]1CC[C@]2(C)[C@@H]1[C@H](O)C[C@@H]1[C@@]3(C)CC[C@H](O)C(C)(C)[C@@H]3CC[C@]12C (stereo partly shown) [CK]	734 ng/mL

###

# assay.procedure: Single-dose trial, plasma pharmacokinetics
# Type: in vivo, human
# conditions.used: both sexes, human, plasma, po, 50 mg, single-dose trial, 50 mg oral, fasting; read-out: Tmax, median (range)

molecule	Tmax
CC(C)=CCC[C@](C)(OC1O[C@H](CO)[C@@H](O)[C@H](O)[C@H]1O)[C@H]1CC[C@]2(C)[C@@H]1[C@H](O)C[C@@H]1[C@@]3(C)CC[C@H](O)C(C)(C)[C@@H]3CC[C@]12C (stereo partly shown) [CK]	3 h

###

# assay.procedure: Multiple-dose trial, plasma pharmacokinetics
# Assay type: in vivo, human
# conditions.used: both sexes, human, plasma, po, 100 mg, 100 mg oral after breakfast, Day 1
metric.name: AUC(0-t) (ng·h/mL)

compound	numeric.value
CC(C)=CCC[C@](C)(OC1O[C@H](CO)[C@@H](O)[C@H](O)[C@H]1O)[C@H]1CC[C@]2(C)[C@@H]1[C@H](O)C[C@@H]1[C@@]3(C)CC[C@H](O)C(C)(C)[C@@H]3CC[C@]12C (stereo partly shown)	8880

###

# assay.procedure: Single-dose trial, plasma pharmacokinetics
# Type: in vivo, human
# conditions.used: both sexes, human, plasma; single-dose trial, 200 mg oral, fasting
# Experimental: Single-dose pharmacokinetics: The single-dose trial was performed first. […] Drinking before and after medication was prohibited for 2 h, but the amount and time of drinking were not strictly controlled at other times. […] All samples were preserved at −70°C and analyzed with a LC-MS/MS (API 4000 LC-MS/MS, ABI Company, Foster City, CA, USA) at the Institute of Clinical Pharmacology, Central South University (Changsha, China). […]
metric.name: MRT inf (h)

compound	unit.of.measure	numeric.value
CC(C)=CCC[C@](C)(OC1O[C@H](CO)[C@@H](O)[C@H](O)[C@H]1O)[C@H]1CC[C@]2(C)[C@@H]1[C@H](O)C[C@@H]1[C@@]3(C)CC[C@H](O)C(C)(C)[C@@H]3CC[C@]12C (stereo partly shown) [CK]	h	13.8

###

# assay.procedure: Single-dose trial, plasma pharmacokinetics
# Format: in vivo, human
# conditions.used: both sexes, human, plasma, oral; single-dose trial, 25–800 mg; read-out: median Tmax across the dose groups
metric.name: Tmax

molecule	result
CC(C)=CCC[C@](C)(OC1O[C@H](CO)[C@@H](O)[C@H](O)[C@H]1O)[C@H]1CC[C@]2(C)[C@@H]1[C@H](O)C[C@@H]1[C@@]3(C)CC[C@H](O)C(C)(C)[C@@H]3CC[C@]12C (stereo partly shown)	2.5 to 3.3 h

###

# assay.procedure: Multiple-dose trial, plasma pharmacokinetics
# Assay type: in vivo, human
# conditions.used: both sexes, human, plasma, oral, Day 1, all subjects, read-out: t1/2 (converted)
metric.name: half-life (h)

compound	numeric.value
CC(C)=CCC[C@](C)(OC1O[C@H](CO)[C@@H](O)[C@H](O)[C@H]1O)[C@H]1CC[C@]2(C)[C@@H]1[C@H](O)C[C@@H]1[C@@]3(C)CC[C@H](O)C(C)(C)[C@@H]3CC[C@]12C (stereo partly shown) [CK]	24.9
